Experiment: gradient 5% acetonitrile 3 min, to 50% in 2 min, to 85% in 15 min, held 3 min, 100 µL/min
Conditions: column: Zorbax Extend-C18 2.1 x 50 mm; eluents: water / acetonitrile, 0.1% formic acid
OBSERVATION TYPE: RP-LC retention time (s)

COc1cc(-c2noc(Cn3ncn4nc(-c5ccccc5Cl)cc4c3=O)n2)cc(OC)c1OC    1060
CC1(C)CC(=O)c2cn(-c3ccccc3)c(=O)c(C(=O)NC3CCCCC3)c2C1    1010
CCc1ccc(S(=O)(=O)N2C[C@@H]3C(=O)N(C(CC)c4cccs4)C(=O)[C@@H]3C2)cc1 (stereo not given in full)    1070
CC(C)Oc1ccc(CNC(=O)CN2CCN(Cc3ccc(F)cc3)C2=O)cc1    865
CCn1c(C2CCN(C(=O)c3ccc(Br)o3)C2)nc2cccnc21 (stereo not given)    678

a. COCCc1noc([C@@H]2CN(Cc3cccc(Cl)c3)C[C@H]2CO)n1
b. CCn1cc(-c2nc(CC(=O)Nc3ccc(F)cc3C)cs2)c2cccnc21
Query: Of a and b , which carries the smaller reported RP-LC retention time figure? Your answer should be the label of the entry you select.
Result: a
(a: 609 s, b: 902 s)

---

Experiment: gradient 5% acetonitrile 3 min, to 50% in 2 min, to 85% in 15 min, held 3 min, 100 µL/min
Details: column: Zorbax Extend-C18 2.1 x 50 mm; eluents: water / acetonitrile, 0.1% formic acid
OBSERVATION TYPE: RP-LC retention time (s)

CC(C)(C)C(O)CCNC(=O)C1(c2ccc(F)cc2)CC1 (stereo not given)    823
COc1ccccc1CN1CCc2nc(N3CCN(c4ccccc4OC)CC3)ncc2C1    687
Cc1cc(C(=O)N2CC(C(=O)Nc3cccc(-c4csc(C)n4)c3)C2)no1    721
Cc1ccn(-c2ccc(Nc3ccc(NC(=O)c4ccccc4C(F)(F)F)cc3)nn2)n1    809
CCCCC#Cc1nc(NC)c2ncn([C@@H]3O[C@H](CO)C(O)[C@@H]3O)c2n1 (stereo not given in full)    724
Cc1cccc(NC(=O)N2CCCC2c2nc(-c3cccc(F)c3)no2)c1 (stereo not given)    1020
CCn1cc(S(=O)(=O)NCc2ccccc2)c2cccnc21    804
O=C(NCc1cccc(Cl)c1)C1CCCN(c2nc3ncccc3n3cccc23)C1 (stereo not given)    664
O=C(c1c2c(nn1C1CCS(=O)(=O)C1)CCC2)N1CCC(Cc2ccccc2)CC1 (stereo not given)    849
Cc1cc(-c2ccccc2)nc(Nc2nc(-c3ccccc3)c(CC(=O)O)s2)n1    922

a. Cc1cc(-c2nnc(C3CC3)o2)c(C)n1CC(=O)NCc1ccc(F)cc1F
b. CCc1cc(=O)n(CC(=O)NCc2ccccc2)c(N)n1
Query: Recorded RP-LC retention time values differ for a and b ; which one is higher? Your answer should be the label of the entry you select.
Result: a

---

Test: gradient 5% acetonitrile 3 min, to 50% in 2 min, to 85% in 15 min, held 3 min, 100 µL/min
Conditions: column: Zorbax Extend-C18 2.1 x 50 mm; eluents: water / acetonitrile, 0.1% formic acid
OBSERVATION TYPE: RP-LC retention time (s)

Worked examples follow.
CCc1ccc(S(=O)(=O)N2CCN(CCc3cn(C)c4ncccc34)CC2)cc1    668
Cc1cccc(-c2[nH]c(C(C)(C)C)nc2-c2ccc3nccnc3c2)n1    659

P. Cc1ccc(CNC(=O)c2ccc3c(c2)ncn3CCN2CCCC2)cc1
Q. O=S(=O)(c1ccc2nncn2c1)N(Cc1ccccc1)c1cccc(F)c1
R. COc1ccc(N2CCN(c3ccc(-c4nc(-c5ccccc5)no4)cn3)CC2)cc1
Query: // smallest RP-LC retention time at index 0, largest at the end Provide your answer as the labels ordered per the instruction.
Result: P, Q, R

a. Cc1c(-c2cccc(NS(=O)(=O)c3ccc(Cl)cc3)c2)nc2ncccn12
b. Cc1ccc(NC(=O)CSc2nccc(N3CCN(c4cc(C)ccc4C)CC3)n2)c(C)c1
Query: Of a and b , which carries the smaller reported RP-LC retention time figure? Your answer should be the label of the entry you select.
Result: a
(a: 627 s, b: 1060 s)

P. CCc1nnc(NC(=O)C2CCN(C(=O)c3ccc(F)cc3)CC2)s1
Q. COc1cccc(C(C)NC(=O)C2CCCN(c3nccnc3Sc3ccc(C)cc3)C2)c1 (centres undefined)
Query: Of P and Q , which carries the smaller reported RP-LC retention time figure? Your answer should be the label of the entry you select.
Result: P
(P: 679 s, Q: 1120 s)

---

Assay: gradient 5% acetonitrile 3 min, to 50% in 2 min, to 85% in 15 min, held 3 min, 100 µL/min
Conditions: column: Zorbax Extend-C18 2.1 x 50 mm; eluents: water / acetonitrile, 0.1% formic acid
OBSERVATION TYPE: RP-LC retention time (s)

COc1ccc(-c2ccc(=O)n(Cc3nc(-c4ccccc4Cl)no3)n2)cc1    962
CN(C)C(=O)c1cc2c(s1)CCC(C(=O)Nc1ccccc1)C2 (stereo not given)    772
CCc1ccc(C(=O)N2CCCC(COc3ccc(C(=O)NC(C)C)cc3)C2)cc1 (stereo not given)    944
COCc1noc([C@@H]2CC(F)(F)CN2C(=O)c2conc2C)n1    679
COc1ccc(-c2ccc3c(N4CCOCC4)nc(N4C[C@@H](C)O[C@@H](C)C4)nc3n2)cc1CO    698

---

Test: gradient 5% acetonitrile 3 min, to 50% in 2 min, to 85% in 15 min, held 3 min, 100 µL/min
Conditions: column: Zorbax Extend-C18 2.1 x 50 mm; eluents: water / acetonitrile, 0.1% formic acid
OBSERVATION TYPE: RP-LC retention time (s)

CCCN(C(=O)c1ccc2c(c1)OCO2)c1nc(-c2ccccc2)cs1    1260
CC(C)N(C(=O)Cn1c(C2CC(=O)N(Cc3ccccc3)C2)nc2ccccc21)C(C)C (stereo not given)    764

I. O=C(CSc1nnc2c3sc(N4CCCC4)nc3ncn12)N1CCN(c2ccc(F)cc2)CC1
II. O=S(=O)(NCCC1=CCCCC1)c1cccc(-c2nc(-c3ccccc3)no2)c1
Query: Recorded RP-LC retention time values differ for I and II ; which one is higher? Your answer should be the label of the entry you select.
Result: II
(II: 1360 s, I: 834 s)

---

Assay: gradient 5% acetonitrile 3 min, to 50% in 2 min, to 85% in 15 min, held 3 min, 100 µL/min
Conditions: column: Zorbax Extend-C18 2.1 x 50 mm; eluents: water / acetonitrile, 0.1% formic acid
OBSERVATION TYPE: RP-LC retention time (s)

Worked examples follow.
O=C(Cc1ccccc1F)N1CCc2[nH]cnc2C1c1ccccc1 (stereo not given)    632
COc1ccc(-c2noc(C3CCCN(S(=O)(=O)c4ccc(C)cc4)C3)n2)cc1OC (stereo not given)    993
CCN1C(=O)c2cc(S(=O)(=O)Nc3ccc(F)cc3C)ccc2Oc2cccnc21    1010

P. O=C(Nc1ccnn1Cc1cccs1)c1ccccc1Br
Q. COc1ccc(-c2nnc(-c3ccc(C)c(S(=O)(=O)N4CCCCCC4)c3)o2)cc1
Query: Recorded RP-LC retention time values differ for P and Q ; which one is higher? Your answer should be the label of the entry you select.
Result: Q
(Q: 1150 s, P: 794 s)

A. CCCCS(=O)(=O)Nc1ccc2c(c1)nc(-c1ccc(C(=O)NCCC)cc1)n2C
B. CC1(C(=O)NC2CCCCCCC2)CN(S(C)(=O)=O)CC(=O)N1Cc1cccc(F)c1 (stereo not given)
Query: Recorded RP-LC retention time values differ for A and B ; which one is higher? Your answer should be the label of the entry you select.
Result: B

a. Cc1cc(C)c(S(=O)(=O)N2CCn3c(nn(CC4CC4)c3=O)C2)cc1C
b. Cc1noc([C@@H]2CN(Cc3ccc(Cl)cc3F)C[C@H]2CO)n1
Query: Of a and b , which carries the smaller reported RP-LC retention time figure? Your answer should be the label of the entry you select.
Result: b
(b: 600 s, a: 873 s)

P. O=C1C(N2CCCN(S(=O)(=O)c3cc(F)cc(F)c3)CC2)CCN1CC1CC1 (stereo not given)
Q. CCC(C)(C)NC(=O)CN1C(=O)CCCc2cc(S(=O)(=O)N3CCC(C)CC3)ccc21
Query: Recorded RP-LC retention time values differ for P and Q ; which one is higher? Your answer should be the label of the entry you select.
Result: Q

---

Experiment: gradient 5% acetonitrile 3 min, to 50% in 2 min, to 85% in 15 min, held 3 min, 100 µL/min
Settings: column: Zorbax Extend-C18 2.1 x 50 mm; eluents: water / acetonitrile, 0.1% formic acid
OBSERVATION TYPE: RP-LC retention time (s)

Worked examples follow.
CCN(CC)c1ncc2c(n1)CCC(C(=O)NCc1nc3ccccc3n1C)C2 (stereo not drawn)    537
O=C(CSc1nc2ncccc2n2cccc12)N1CCN(c2ccccn2)CC1    592
CCc1cccc(NS(=O)(=O)c2ccc(-c3nnc(C4CCC4)o3)o2)c1    1000
Cc1cc(C)c(S(=O)(=O)NCCc2cn(CC(C)C)c3ncccc23)cc1C    1040
O=C(Nc1ccc2cn[nH]c2c1)C1CC1    608
Cc1ccc(NC(=O)N2CCN(c3cc(-c4ccncc4)[nH]n3)CC2)c(C)c1    615
O=C(NCCCN1CCC(N2CCCCC2)CC1)c1ccc2c(c1)NC(=O)C1CCCCN21 (stereo not drawn)    537
CCc1nc(-c2csc(S(=O)(=O)N3CCCC(C(=O)Nc4ccc(Cl)cc4F)C3)c2)no1 (stereo not drawn)    1150
CCOc1ccc(-c2csc3c(=O)n(Cc4ccc(Br)cc4)cnc23)cc1OCC    1210
Cc1nnc(-c2cc(NC(=O)Cc3c(F)cccc3Cl)c(C)s2)o1    886

A. CCOc1ccc(-n2cc(C(=O)OCC(=O)OC(C)C)c3ccccc3c2=O)cc1
B. CCOC(=O)C1CCN(CC(=O)Nc2oc3ccccc3c(=O)c2-c2ccccc2)CC1
Query: Recorded RP-LC retention time values differ for A and B ; which one is higher? Your answer should be the label of the entry you select.
Result: A
(A: 1140 s, B: 586 s)

src = the METLIN SMRT retention time set (Domingo-Almenara et al. 2019)
